// data source = PubChem BioAssay

assayExplanation: reducers of endogenous Her2 protein level, primary screen, SKBR3 breast tumor cells, AlphaScreen, ATP viability (AID 461);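 also: percent of carrier control wells set as 100% viability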
conditionDescription: 18-24 h, measured here: SKBR3 viability, ATP luminescence, at 10 µM
Listed compounds paired with reported viability
Respond numerically; units are % and should not be typed.

Query: Query (compound): O=C(O)[C@@H]1CCCN1c1ncnc2sc3c(c12)CCC3 ; field requested: viability
Result: 128

More entries:
Query: Query (compound): O=C(Cn1ncc2ccccc21)N1CCN(c2cccc(C(F)(F)F)c2)CC1 ; field requested: viability
Result: 89.5

* * *

Listed compounds paired with reported differential viability (reversal)
assayExplanation: reversal of MRP1-mediated doxorubicin resistance, pilot screen, H69AR cells, doxorubicin co-treatment (AID 601)
conditionDescription: H69AR cells + 2 uM doxorubicin, CellTiter-Glo, 72 h; at 10 µM; stronger effect = higher value
Respond numerically; units are % and should not be typed.

Known results for compounds:
Query: Query (compound): O=C1C(C=NCCCn2ccnc2)=C(O)c2ccccc21 ; field requested: differential viability (reversal)
Result: 17.2

Query: Query (compound): COc1cccc(CNC(=O)C2CCN(S(=O)(=O)c3ccc(F)cc3)CC2)c1 ; field requested: differential viability (reversal)
Result: -7.57

Query: Query (compound): CC(C)OC(=O)CSc1nnc(Cc2ccccc2)n1Cc1ccco1 ; field requested: differential viability (reversal)
Result: 6.06

Query: Query (compound): Cc1nnc(SCc2cn3ccsc3n2)n(N)c1=O ; field requested: differential viability (reversal)
Result: -4.16

Query: Query (compound): COc1ccc(/C(O)=C2/C(=O)C(=O)N(CCN(C)C)C2c2ccccn2)cc1OC (stereo unspecified) ; field requested: differential viability (reversal)
Result: 3.17

# context switch: different compound, same differential viability (reversal)
Query: Query (compound): O=C(O)CCNc1nc(-c2ccccc2)nc2ccccc12 ; field requested: differential viability (reversal)
Result: -2.72

* * *

assayExplanation: HUVEC growth inhibition – cell-based, human, primary screen (AID 575);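 also: 100% = median of untreated cell wells with 0.1% DMSO on each plate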
conditionDescription: HUVEC proliferation, CellTiter-Glo luminescence, 72 h; at 10 µM; stronger effect = lower value
Listed molecules paired with reported viability
Respond numerically; units are % and should not be typed.

Known results for molecules:
Query: Query (molecule): CCC(=O)N1Cc2ccccc2-c2ccccc2C1=O ; field requested: viability
Result: 80.1

Query: Query (molecule): CN(c1ccccc1)S(=O)(=O)c1ccc(C(=O)OCC(=O)N2CCOCC2)cc1 ; field requested: viability
Result: 106

Query: Query (molecule): Cc1cccc(Nc2nc(N)nc(CN3CCC(C(N)=O)CC3)n2)c1C ; field requested: viability
Result: 105

Query: Query (molecule): COCCOC(=O)/C=C1/NC(=O)CS1 ; field requested: viability
Result: 106

More entries:
Query: Query (molecule): C/C=C(\C)c1nnc(NC(=O)C(C)C)s1 ; field requested: viability
Result: 101

Query: Query (molecule): COc1ccccc1OCCOc1ccccc1/C=N/n1cnnc1 ; field requested: viability
Result: 96.4

Query: Query (molecule): CCCN(CCC)C(=O)C1CCN(c2cc(C)nc3c(-c4ccc(OC)c(OC)c4)c(C)nn23)CC1 ; field requested: viability
Result: 58.1

Query: Query (molecule): CN=Cc1cc(-c2ccccc2)sc1O ; field requested: viability
Result: 102

Query: Query (molecule): Cc1ccc(/C(O)=C2/C(=O)C(=O)N(Cc3ccco3)C2c2cccs2)cc1 (stereo unspecified) ; field requested: viability
Result: 101

Query: Query (molecule): CC1(C)Cc2nc3oc4c(N(CCO)Cc5ccccc5)ncnc4c3cc2CO1 ; field requested: viability
Result: 92.5

Query: Query (molecule): COc1ccc(NC(=O)CCCN2C(=O)C3C4C=CC(C4)C3C2=O)c(OC)c1 (stereo unspecified) ; field requested: viability
Result: 82

Query: Query (molecule): CSCCC(NS(=O)(=O)c1ccc2c(c1)oc(=O)n2C)C(=O)NC1CCCCC1 (stereo unspecified) ; field requested: viability
Result: 87.4
